Values compiled from patent US7439372B2.

biological target: EP2 (Homo sapiens); assay: Competition binding, [3H]PGE2, HEK 293 cells stably expressing human EP2 receptors; design: expressed in transfected cells; host or cells: HEK 293; conditions: [3H]PGE2 competition
Sequence (P43116 whole entry): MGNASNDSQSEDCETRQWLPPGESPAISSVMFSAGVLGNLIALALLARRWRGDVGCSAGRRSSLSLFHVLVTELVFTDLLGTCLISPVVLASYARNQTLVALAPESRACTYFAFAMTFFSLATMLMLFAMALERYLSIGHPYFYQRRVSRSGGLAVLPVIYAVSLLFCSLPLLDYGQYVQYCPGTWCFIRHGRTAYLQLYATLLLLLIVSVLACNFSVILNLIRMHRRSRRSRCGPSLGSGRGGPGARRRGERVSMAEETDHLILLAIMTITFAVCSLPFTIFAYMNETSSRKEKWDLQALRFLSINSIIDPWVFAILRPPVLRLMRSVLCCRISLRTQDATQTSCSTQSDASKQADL
assayReadout: Ki

Request: GET /values?readout=Ki&item= CCCCCC(O)c1ccc([C@H]2C(=O)C=C[C@@H]2C/C=C\CCCC(=O)O)cc1 (some centres unmarked) [compound 4]
Response: > 10000 nM

Request: GET /values?readout=Ki&item= CCCCCC(O)c1ccc([C@H]2C(=O)CC[C@@H]2CCCc2ccc(C(=O)O)s2)cc1 (some centres unmarked) [compound 2]
Response: 70 nM

Request: GET /values?readout=Ki&item= CCCCCC(O)c1ccc([C@H]2C(=O)C=C[C@@H]2CCCc2ccc(C(=O)O)s2)cc1 (some centres unmarked) [compound 11]
Response: 173 nM

Request: GET /values?readout=Ki&item= CCCCCC(O)c1ccc([C@@H]2[C@@H](C/C=C\CCCC(=O)O)CC[C@H]2Cl)cc1 (some centres unmarked) [compound 6]
Response: 401 nM

Request: GET /values?readout=Ki&item= CCCCCC(O)c1ccc([C@@H]2[C@@H](CCCc3ccc(C(=O)O)s3)CCC2(Cl)Cl)cc1 (some centres unmarked) [compound 3]
Response: 89 nM

Request: GET /values?readout=Ki&item= CCCCCC(O)c1ccc([C@@H]2[C@@H](C/C=C\CCCC(=O)O)CC[C@H]2O)cc1 (some centres unmarked) [compound 7]
Response: 2310 nM

Request: GET /values?readout=Ki&item= CCCCCC(O)c1ccc([C@H]2C(=O)CC[C@@H]2C/C=C\CCCC(=O)O)cc1 (some centres unmarked) [compound 5]
Response: 1050 nM

Request: GET /values?readout=Ki&item= CCCCCC(O)c1ccc([C@H]2C(=O)CC[C@@H]2CCCc2ccc(C(=O)O)s2)cc1 (some centres unmarked) [compound 1]
Response: 43 nM
